system name: recombinant human acetylcholineesterase (rHuAChE) (Homo sapiens)
Sequence (P22303 32-614): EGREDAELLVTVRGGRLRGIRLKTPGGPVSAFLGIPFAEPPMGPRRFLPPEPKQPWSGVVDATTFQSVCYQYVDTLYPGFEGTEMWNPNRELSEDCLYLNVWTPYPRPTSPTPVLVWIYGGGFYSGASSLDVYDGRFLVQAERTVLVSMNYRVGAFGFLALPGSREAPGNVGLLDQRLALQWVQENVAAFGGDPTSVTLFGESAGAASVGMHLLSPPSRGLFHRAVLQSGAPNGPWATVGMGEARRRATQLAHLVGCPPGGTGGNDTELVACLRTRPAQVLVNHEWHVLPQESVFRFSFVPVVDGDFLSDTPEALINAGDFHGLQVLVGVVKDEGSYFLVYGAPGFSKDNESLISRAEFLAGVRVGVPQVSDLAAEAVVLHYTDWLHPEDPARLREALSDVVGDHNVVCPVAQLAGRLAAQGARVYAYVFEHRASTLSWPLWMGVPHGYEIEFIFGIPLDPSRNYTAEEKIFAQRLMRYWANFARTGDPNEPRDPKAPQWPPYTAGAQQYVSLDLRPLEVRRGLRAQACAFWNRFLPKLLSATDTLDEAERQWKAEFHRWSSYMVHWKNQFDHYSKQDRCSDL
method notes: biochemical
pKi: −log10 of the molar value.
value kind: pKi

# compound, reported result
data = [
    ("CC(C)Cc1ccc(C(C)C(=O)OCCCCCCCCN2CCC=C(OC(=O)N(C)C)C2)cc1 (stereo not shown)", 4.92),
]

###

Listing of recorded pIC50 by entry.
system name: recombinant human acetylcholineesterase (rHuAChE) (Homo sapiens)
method notes: biochemical
pIC50: −log10 of the molar value.

# compound, system name, pIC50
measured = [
    ("COC(=O)C1=CCCN(C)C1", "recombinant human acetylcholineesterase (rHuAChE) (Homo sapiens)", "< 4.00"),
    ("COC(=O)c1cccnc1 [MN, methyl nicotinate]", "recombinant human acetylcholineesterase (rHuAChE) (Homo sapiens)", "< 4.00"),
]

###

system name: human plasma butyrylcholinesterase (HuBChE) (Homo sapiens)
Sequence (P06276 29-602): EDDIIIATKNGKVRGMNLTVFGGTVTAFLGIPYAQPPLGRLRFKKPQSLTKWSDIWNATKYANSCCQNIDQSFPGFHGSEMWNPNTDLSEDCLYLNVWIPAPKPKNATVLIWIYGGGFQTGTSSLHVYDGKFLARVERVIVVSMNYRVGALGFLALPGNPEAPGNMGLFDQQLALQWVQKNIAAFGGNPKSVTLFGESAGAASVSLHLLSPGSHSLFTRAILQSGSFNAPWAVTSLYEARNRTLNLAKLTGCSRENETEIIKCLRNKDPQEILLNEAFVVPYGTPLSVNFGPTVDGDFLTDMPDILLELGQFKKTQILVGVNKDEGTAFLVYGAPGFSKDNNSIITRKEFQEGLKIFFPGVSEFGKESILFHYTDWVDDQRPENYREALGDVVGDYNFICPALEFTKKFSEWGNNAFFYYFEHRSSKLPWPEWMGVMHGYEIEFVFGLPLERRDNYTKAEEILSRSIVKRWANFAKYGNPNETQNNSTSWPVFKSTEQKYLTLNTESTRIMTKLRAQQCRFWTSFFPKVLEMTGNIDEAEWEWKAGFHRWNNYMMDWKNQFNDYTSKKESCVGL
method notes: biochemical
pKi: −log10 of the molar value.

# compound, system name, pKi
data = [
    ("CC(C)Cc1ccc(C(C)C(=O)OCCCCCCCCN2CCC=C(OC(=O)N(C)C)C2)cc1 (stereo not shown)", "human plasma butyrylcholinesterase (HuBChE) (Homo sapiens)", 5.80),
]

###

method notes: in vivo
condition context: mouse, im
value kind: LD50 (mg/kg)

# molecule, value modifier, reported result
data = [
    ("CN(C)C(=O)Oc1ccc[n+](C)c1", "=", 2.1),
    ("CC(C)Cc1ccc(C(C)C(=O)O)cc1 (centres unmarked)", ">", 100),
]

###

method notes: in vivo
condition context: mouse, ip
Listing of recorded LD50 by entry.
value kind: LD50 (mg/kg)

# molecule, value modifier, reported result
measured = [
    ("CC(=O)Oc1ccccc1C(=O)O", ">", 100),
    ("CC(C)Cc1ccc(C(C)C(=O)OCCCCCCCCN2CCC=C(OC(=O)N(C)C)C2)cc1 (stereo not shown)", "=", 54.2),
    ("CN(C)C(=O)Oc1ccc[n+](C)c1", "=", 5.1),
    ("COc1ccc2c(c1)c(CC(=O)O)c(C)n2C(=O)c1ccc(Cl)cc1", "=", 12.4),
]

All figures here come from patent US20020160988A1.
